Target: aryl hydrocarbon receptor (AhR) (Homo sapiens)
Construct: DRE-Luc HepG2 cells subcultured in a 225 cm^2 flask; endogenous in cells
Sequence (P35869 11-848): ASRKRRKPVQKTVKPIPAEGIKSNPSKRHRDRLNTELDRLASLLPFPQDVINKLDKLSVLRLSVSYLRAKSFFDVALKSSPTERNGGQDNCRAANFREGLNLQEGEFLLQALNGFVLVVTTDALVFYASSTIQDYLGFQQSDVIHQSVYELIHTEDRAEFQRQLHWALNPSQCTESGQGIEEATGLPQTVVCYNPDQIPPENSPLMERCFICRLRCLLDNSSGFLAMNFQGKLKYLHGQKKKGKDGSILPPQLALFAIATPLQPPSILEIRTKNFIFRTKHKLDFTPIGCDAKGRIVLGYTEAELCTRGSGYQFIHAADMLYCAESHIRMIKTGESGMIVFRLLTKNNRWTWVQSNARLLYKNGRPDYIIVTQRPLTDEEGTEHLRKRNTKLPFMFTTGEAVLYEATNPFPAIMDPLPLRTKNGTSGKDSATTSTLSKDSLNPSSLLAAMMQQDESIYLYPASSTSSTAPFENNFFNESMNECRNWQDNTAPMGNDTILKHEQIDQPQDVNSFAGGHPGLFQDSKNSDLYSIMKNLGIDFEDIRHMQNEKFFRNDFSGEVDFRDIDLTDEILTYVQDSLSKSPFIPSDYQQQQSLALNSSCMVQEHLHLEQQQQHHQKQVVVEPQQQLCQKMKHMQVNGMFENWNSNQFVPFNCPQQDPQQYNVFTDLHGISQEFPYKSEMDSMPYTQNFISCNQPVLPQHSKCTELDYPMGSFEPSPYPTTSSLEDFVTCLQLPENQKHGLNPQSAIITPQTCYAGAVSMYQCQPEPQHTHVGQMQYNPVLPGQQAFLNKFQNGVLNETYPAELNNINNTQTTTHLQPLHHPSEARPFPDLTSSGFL
Assay: AhR reporter gene assay (aryl hydrocarbon receptor antagonist activity, DRE-Luc HepG2 cells, TCDD-stimulated luciferase)
Measured pIC50 by item
Lab note: report pIC50 as minus log10 of the concentration in molar units, number only.

[
  {
    "molecule": "CC1(C)COc2nc3c(NCCc4ccc(O)c(-c5cncc(F)c5)c4)nc(-c4cncc(F)c4)nc3n21 [Example 43]",
    "system": "aryl hydrocarbon receptor (AhR) (Homo sapiens)",
    "value": 7.59
  },
  {
    "molecule": "CC1(C)CSc2nc3c(NCCc4ccc(O)c(-c5cccc(C#N)c5)c4)nc(-c4cncc(F)c4)nc3n21 [Example 57]",
    "system": "aryl hydrocarbon receptor (AhR) (Homo sapiens)",
    "value": 9.41
  },
  {
    "molecule": "C[C@@H]1COc2nc3c(NCCc4ccc(O)c(-c5cncc(C#N)c5)c4)nc(-c4cncc(F)c4)nc3n21 [Example 77]",
    "system": "aryl hydrocarbon receptor (AhR) (Homo sapiens)",
    "value": 8.04
  },
  {
    "molecule": "CC1(C)COc2nc3c(NCCc4ccc(O)c(-c5cccc(F)c5)c4)nc(-c4cncc(F)c4)nc3n21 [Example 3]",
    "system": "aryl hydrocarbon receptor (AhR) (Homo sapiens)",
    "value": 8.54
  }
]

Note to self: pIC50 of C[C@H]1CSc2nc3c(NCCc4ccc(O)c(-c5ccccc5F)c4)nc(-c4cncc(F)c4)nc3n21 [Example 30] with aryl hydrocarbon receptor (AhR) (Homo sapiens) was 9.11

Note to self: pIC50 of CC1(C)COc2nc3c(NCCc4c[nH]c5ccccc45)nc(-c4cncc(C#N)c4)nc3n21 [Example 92] with aryl hydrocarbon receptor (AhR) (Homo sapiens) was 7.48

Note to self: pIC50 of CC1(C)CSc2nc3c(NCCc4ccc(O)c(-c5cccc(C#N)c5)c4)nc(-c4cncc(C#N)c4)nc3n21 [Example 60] with aryl hydrocarbon receptor (AhR) (Homo sapiens) was 9.37
